# protocolDescription: Permeability of the compound at […] after 3 hrs by artificial membrane permeability assay
# Format: ADME
# condition: PAMPA; read-out: permeability
# binning rule on Papp at 3 h: low (below 30 ×10⁻⁶ cm/s), medium (30 ×10⁻⁶ cm/s to below 40 ×10⁻⁶ cm/s), high (40 ×10⁻⁶ cm/s or more)

# itemSmiles, qualitativeLabel
rows = [
    ("O=C(Nc1nc(-c2ccc(Cl)c(Cl)c2)cs1)c1c(F)cccc1F", "low"),
    ("O=C(Nc1nc(-c2ccc(Cl)c(Cl)c2)cs1)c1cccnc1", "medium"),
    ("CC(=O)Nc1nc(-c2ccc(Cl)c(C)c2)cs1", "low"),
    ("N#CCC(=O)Nc1nsc(-c2ccc(Cl)c(Cl)c2)n1", "low"),
    ("Cc1ncncc1C(=O)NC1=NN(c2ccc(Cl)c(Cl)c2)CC1", "medium"),
    ("O=C(NC1=NN(c2ccc(Cl)c(Cl)c2)CC1)c1ccccn1", "medium"),
    ("O=C(NC1=NN(c2ccc(Cl)c(Cl)c2)CC1)c1cncnc1", "medium"),
    ("C[C@H]1CN(c2ccc(Cl)c(Cl)c2)N=C1NC(=O)c1cncnc1", "high"),
    ("O=C(Nc1nc(-c2ccc(Cl)c(Cl)c2)cs1)c1cncs1", "low"),
    ("N#CCC(=O)Nc1csc(-c2ccc(Cl)c(Cl)c2)c1", "low"),
]

input: Input N#CCC(=O)Nc1ccn(-c2ccc(Cl)c(Cl)c2)n1 ; output its category
output: medium

input: Input O=C(NC1=NN(c2ccc(Cl)c(Cl)c2)CC1)c1cccnc1F ; output its category
output: high

input: Input CC(=O)NC1=NN(c2ccc(Cl)c(Cl)c2)[C@@H](C)C1 ; output its category
output: high

input: Input CC(=O)Nc1nc(-c2nc(C)no2)cs1 ; output its category
output: low
